system: Escherichia coli TOP10; assay: shrunken log2 fold change of peptide-encoding DNA abundance (4.5 h post-induction vs induction); higher = less antimicrobial activity (less host growth inhibition); details: time post-induction: 4.5 h; library: site-saturation at positions 5, 18, 19, 20;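 further: peptides expressed intracellularly from a pBAD plasmid library in pooled LB shake-flask culture, induced with 0.3% L-arabinose, DNA abundance read by NGS, three biological replicates, DESeq2 with apeglm shrinkage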
Rule: shrunken log2 fold change of 0.2 or more gives 1 (yes); anything lower gives 0 (no).

chain-sequence	target-of-assay	group-label
RRIRVRPPRLPRPRPRPHDHPRP	Escherichia coli TOP10	0 (no)
RRIRERPPRLPRPRPRPPWWPRP	Escherichia coli TOP10	1 (yes)
RRIRSRPPRLPRPRPRPACTPRP	Escherichia coli TOP10	1 (yes)
RRIRCRPPRLPRPRPRPDYCPRP	Escherichia coli TOP10	1 (yes)
RRIRIRPPRLPRPRPRPIYAPRP	Escherichia coli TOP10	0 (no)
